molecular target: Mu-type opioid receptor (Cavia porcellus); test: Displacement of [3H]DAGO from mu opioid receptors in guinea pig brain (minus cerebellum).; assay type: tissue-based
Sequence (P97266 whole entry): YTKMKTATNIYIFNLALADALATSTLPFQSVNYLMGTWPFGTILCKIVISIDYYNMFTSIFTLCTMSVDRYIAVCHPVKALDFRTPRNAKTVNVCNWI
Please respond with label 1 when measured Ki is strictly beneath 3 µM, and with label 0 in all other cases.

Task: Would you kindly verify if Ki of CC(C1CCCCN1C(=O)Cc1ccc(Cl)c(Cl)c1)N(C)C (stereo in doubt; 37) is strictly less than 3 µM?
Result: label 1

Task: Quick check: Ki of O=C(Cc1ccc(C2CCCCC2)cc1)N1CCCCC1CN1CCCC1 (configuration not stated) under 3 µM?
Result: label 1

Task: A record lists O=C(Cc1ccccc1C(F)(F)F)N1CCCCC1CN1CCCC1 (configuration not stated) . Is its Ki below 3 µM?
Result: label 0

Task: For CCN(CC)CC1CCCCN1C(=O)Cc1ccc(Cl)c(Cl)c1 (configuration not stated) , is the recorded Ki below the cut-off of 3 µM?
Result: label 0

Task: Please indicate whether the reported Ki of O=C(Cc1ccc(C(F)(F)F)cc1)N1CCCCC1CN1CCCC1 (stereo in doubt; 20) is strictly below 3 µM.
Result: label 0

Task: Given the entry O=C(Cc1cccc(C(F)(F)F)c1)N1CCCCC1CN1CCCC1 (configuration not stated) , would its reported Ki be below 3 µM?
Result: label 0

Data credit: ChEMBL document CHEMBL1125742
